Assay: Encapsulation efficiency of RNA (QUANT-IT RIBOGREEN RNA assay)
Assay type: physicochemical
Conditions: comparison amongst compositions
endpoint.label: encapsulation efficiency, rank within the named table (in words)

INSERT INTO measurements (compound, reported_result) VALUES
  ('CCCCCCCCCCCCN(CCCCCCCCCCCC)CCNCCO [Compound 20-19]', 'highest'),
  ('CCCCC/C=C\CCCCCN(CCCCCCCCCCCC)CCN1CCN(CCN(CCCCCCCCCCCC)CCN(CCCCCCCCCCCC)CCCCCCCCCCCC)CC1 [Compound 24]', 'lowest'),
  ('CCCCCCCCCCCCN(CCCCCCCCCCCC)CCN1CCN(CCN(CCCCCCCCCCCC)C(=O)CN(CCCCCCCCCCCC)CCCCCCCCCCCC)CC1 [Compound 1]', 'lowest'),
  ('CCCCCCCCCN(CCCCCCCCC)CCN(CCCCCCCCC)CCN1CCNCC1 [Compound 36]', 'highest');

----------
System: IP-10
Assay: Cytokine production induced by sample formulations: IP-10
Assay type: in vivo
Conditions: Table 20-4, formula (20-I); mice, i.v., 0.5 mpk, 6 hours; in pg/mL (unit assumed)
Assignment: determine reported IP-10 for the given compounds.
Answers are plain numbers.

INSERT INTO assay_data (compound, reported_result) VALUES
  ('CCCCCCCCCCCCCCN(CCO)CCN(CCCCCCCCCCCCCC)CCCCCCCCCCCCCC', 3864.5),
  ('CCCCCCCCCN(CCCCCCCCC)CCN(CCO)CCCCCC(=O)OCCCCC', 25.3),
  ('CCCCCCCCCCCCN(CCCCCCCCCCCC)CCN(CCO)CCCCCCCCC', 1207.0),
  ('CCCCCCCCCCCCN(CCCO)CCN(CCCCCCCCCCCC)CCCCCCCCCCCC', 900.4),
  ('CCCCCCCCCCCCN(CCO)CCN(CCCCCCCC(=O)OCCCCCCCCC)CCCCCCCC(=O)OCCCCCCCCC', 2356.8);

Would you mind giving IP-10 for every compound in the list below?
1. CCCCCCCCCCCCN(CCCCO)CCN(CCCCCCCCCCCC)CCCCCCCCCCCC
2. CCCCCCCCCN(CCO)CCN(CCCCCCCCC)CCCCCCCCC
3. CCCCC/C=C\CCCCCN(CCO)CCN(CCCCCCCCCCCC)CCCCCCCCCCCC
4. CCCCCC=CCC=CCCCCCCCCC(CCCCCCCCC=CCC=CCCCCC)OC(=O)CCCN(C)C (stereo not shown) [MC3, reference compound]

1. 810.6
2. 395.7
3. 457.8
4. 499.1

----------
Provide the reported Lipid/MC3 hEPO S.D. (rats) of each item.
Test system: hEPO mRNA expression
Test: Expression of hEPO in rats after intravenous administration
Assay type: in vivo
Settings: hEPO expression relative to MC3, S.D. rats, intravenous
Answers are plain numbers.

Use the examples below as a reference point.
INSERT INTO assay_data (compound, subject_of_test, endpoint_label, reported_result) VALUES
  ('CCCCCCCCCCCCN(CCCCCCCCCCCC)CCN(CCCCCCCCCCCC)CCN1CCN(CCN(CCCCCC(=O)OCCCCC)CCCCCC(=O)OCCCCC)CC1', 'hEPO mRNA expression', 'Lipid/MC3 hEPO S.D. (rats)', 0.12),
  ('CCCCCCCCCCCCN(CCCCCCCCCCCC)CCN(CCCCCCCCCCCC)CCN1CCN(CCN(CCCCCCCCCCCC)CCCCCC(=O)OCCCCC)CC1', 'hEPO mRNA expression', 'Lipid/MC3 hEPO S.D. (rats)', 0.32);

In the following, a different compound is considered.
# query: Lipid/MC3 hEPO S.D. (rats) | item CCCCCC=CCC=CCCCCCCCCC(CCCCCCCCC=CCC=CCCCCC)OC(=O)CCCN(C)C (stereo not drawn) [MC3, reference compound] | system: hEPO mRNA expression
1
